Source: ChEMBL document CHEMBL3098070

protocolDescription: Cytotoxicity against HEK293T cells at 50 ug/ml after 72 hrs by MTT assay
Assay type: cell-based, HEK-293T
testParameters: human, read-out: INH
Reported cytotoxicity at 72 h, 50 ug/ml by item:
measurementKind: cytotoxicity at 72 h, 50 ug/ml (%)

1) O=C(Cn1cc(-c2ccc(F)cc2F)nn1)N1c2ccccc2Sc2ccc(C(F)(F)F)cc21; 30.6
2) COc1cccc(-c2cn(CC(=O)N3c4ccccc4Sc4ccc(C(F)(F)F)cc43)nn2)c1; 34.6
3) CCCCCCc1cn(CC(=O)N2c3ccccc3Sc3ccc(C(F)(F)F)cc32)nn1; 25.6

* * *

protocolDescription: Selectivity index, ratio of cytotoxicity for HEK293T cells to MIC for Mycobacterium tuberculosis H37Rv
Assay type: toxicity, cell-based, HEK-293T
testParameters: human, read-out: Selectivity Index
measurementKind: selectivity ratio

1) COc1cccc(-c2cn(CC(=O)N3c4ccccc4Sc4ccc(C(F)(F)F)cc43)nn2)c1; > 10
2) CCCCCCc1cn(CC(=O)N2c3ccccc3Sc3ccc(C(F)(F)F)cc32)nn1; > 10
3) O=C(Cn1cc(-c2ccc(F)cc2F)nn1)N1c2ccccc2Sc2ccc(C(F)(F)F)cc21; > 10
